- tgt: UniProt:P11473
- Sequence (P11473 whole entry): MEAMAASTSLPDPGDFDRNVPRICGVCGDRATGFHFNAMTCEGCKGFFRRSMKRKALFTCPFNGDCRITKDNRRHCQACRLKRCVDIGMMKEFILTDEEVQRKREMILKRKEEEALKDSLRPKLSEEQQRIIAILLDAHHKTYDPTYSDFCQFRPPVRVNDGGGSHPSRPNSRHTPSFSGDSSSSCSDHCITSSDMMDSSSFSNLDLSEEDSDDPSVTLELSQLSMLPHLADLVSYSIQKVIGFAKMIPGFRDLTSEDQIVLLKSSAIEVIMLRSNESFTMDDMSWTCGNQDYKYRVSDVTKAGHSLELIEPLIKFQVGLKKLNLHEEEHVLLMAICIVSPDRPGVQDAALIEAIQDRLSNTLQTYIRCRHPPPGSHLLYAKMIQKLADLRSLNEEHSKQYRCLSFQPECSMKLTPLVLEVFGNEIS
- protocol: Agonist activity at human VDR expressed in human HCT116 cells assessed as CYP24A1 transcriptional activity at 20 to 40 uM after 24 hrs by luciferase reporter gene assay
- Format: cell-based
- study_conditions: HCT-116
Calls of active or inactive are those of the source. The calls are words filed in the database; no cut-off is given here.
readout_kind: Activity

Worked examples follow.
| test_smiles | tgt | readout_kind | readout_value |
| --- | --- | --- | --- |
| O=C(/C=C(O)/C=C/c1ccc(O)c(OC(F)(F)F)c1)/C=C/c1ccc(O)c(OC(F)(F)F)c1 | UniProt:P11473 | Activity | Active |
| COc1cc(/C=C/C(=O)/C=C(O)/C=C/c2cc(Br)c(O)c(OC)c2)cc(Br)c1O | UniProt:P11473 | Activity | Active |
| COc1cc(/C=C/C(=O)CC(=O)/C=C/c2ccc(O)c(OC)c2)ccc1O | UniProt:P11473 | Activity | Active |
| COc1cc(CCC(=O)/C=C(\O)CCc2cc(F)c(O)c(OC)c2)cc(F)c1O | UniProt:P11473 | Activity | inactive |
| O=C(/C=C(O)/C=C/c1ccc(O)c(Cl)c1)/C=C/c1ccc(O)c(Cl)c1 | UniProt:P11473 | Activity | Active |
| O=C(/C=C(O)/C=C/c1ccc(O)c(Br)c1)/C=C/c1ccc(O)c(Br)c1 | UniProt:P11473 | Activity | Active |

Can you share its Activity? I mean this compound: "COc1cc(/C=C/C(=O)/C=C(O)/C=C/c2cc(Cl)c(O)c(OC)c2)cc(Cl)c1O"
Active

Can you share its Activity? I mean this compound: "COc1cc(/C=C/C(=O)/C=C(O)/C=C/c2cc(I)c(O)c(OC)c2)cc(I)c1O"
Active

Can you share its Activity? I mean this compound: "O=C(/C=C(O)/C=C/c1ccc(O)cc1F)/C=C/c1ccc(O)cc1F"
inactive

Can you share its Activity? I mean this compound: "O=C(/C=C(\O)CCc1ccc(O)cc1F)CCc1ccc(O)cc1F"
inactive
